Data provenance is patent US20240084003A1.

Provide the recorded Proportion of chimeric antibody positive cells to B cells (%) for the entries that follow.
- TARGET_ENTITY: T1, CD22 on cynomolgus monkey peripheral blood B cells (cynomolgus monkey (Macaca fascicularis))
- T1 construct: whole, on cells; also called cynomolgus monkey B cells
- ASSAY_METHOD_TEXT: FACS, cynomolgus PBMC, CD20+ B cells, antibody 100 nM

For F2.99.1 (antibody, human IgG1, lambda, V domains shown, human-murine chimeric IgG1 lambda; VL name legible) VH: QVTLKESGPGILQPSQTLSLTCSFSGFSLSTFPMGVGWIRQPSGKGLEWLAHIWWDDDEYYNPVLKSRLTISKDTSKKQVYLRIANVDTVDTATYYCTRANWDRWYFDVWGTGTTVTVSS VL: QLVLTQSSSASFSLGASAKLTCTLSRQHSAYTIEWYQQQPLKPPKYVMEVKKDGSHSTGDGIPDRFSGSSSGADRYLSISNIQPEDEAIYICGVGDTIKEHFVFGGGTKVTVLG , what is its reported Proportion of chimeric antibody positive cells to B cells (%)?
22%

For F1.192.1 (antibody, human IgG1, kappa, V domains shown, human-murine chimeric IgG1 kappa) VH: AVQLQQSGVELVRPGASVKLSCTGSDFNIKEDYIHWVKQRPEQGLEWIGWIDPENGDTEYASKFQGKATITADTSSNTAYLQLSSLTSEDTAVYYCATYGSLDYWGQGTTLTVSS VL: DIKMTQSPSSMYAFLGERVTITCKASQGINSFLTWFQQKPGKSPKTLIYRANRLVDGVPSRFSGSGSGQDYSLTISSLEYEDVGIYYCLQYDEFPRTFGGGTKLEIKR , what is its reported Proportion of chimeric antibody positive cells to B cells (%)?
38%

For F2.173.9 (antibody, human IgG1, lambda, V domains shown, human-murine chimeric IgG1 lambda) VH: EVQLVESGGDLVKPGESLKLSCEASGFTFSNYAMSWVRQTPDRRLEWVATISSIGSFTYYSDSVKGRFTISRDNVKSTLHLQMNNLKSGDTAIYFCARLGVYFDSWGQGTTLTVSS VL: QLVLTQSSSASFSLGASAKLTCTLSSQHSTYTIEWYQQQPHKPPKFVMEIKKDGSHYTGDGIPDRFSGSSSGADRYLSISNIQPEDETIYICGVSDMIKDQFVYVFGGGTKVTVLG , what is its reported Proportion of chimeric antibody positive cells to B cells (%)?
71%
